system: DMS-273; experiment: NCI tumour cell line growth inhibition, 48 h
The source made the active and inactive calls. Cut-off read from the data, not from the text of the source: active = GI50 up to about 1.1 µM and inactive = higher.
Respond using exactly one of the listed classes: True for active, False for inactive

Use the examples below as a reference point.
O=C(CC(=O)C(=O)Nc1ccccc1)CC(c1ccccc1)c1c(O)c2ccccc2oc1=O (configuration not stated): False
O=C1NC(=O)C(=Cc2c3ccccc3cc3ccccc23)C(=O)N1: False
COc1ccc(/C=C2\N=C(c3ccccc3)N(Nc3nnc(NN4C(=O)/C(=C/c5ccc(OC)cc5)N=C4c4ccccc4)c4ccccc34)C2=O)cc1: False
CC(C)c1cc(C(C)C)c(S(=O)(=O)NN)c(C(C)C)c1: False
N#Cc1ccccc1NC(=O)c1ccccc1: False
CCOC(=O)c1s/c(=N\Nc2nc3ccccc3cc2C2OCCO2)n(Cc2ccccc2)c1C: False
Cc1nn(-c2ccccc2)c2nc(N3CCOCC3)nnc12: False
Cn1cnc(CCc2ccccc2)n1: False

Could you now look at the following molecule, please?
What classification did CC(=O)O[C@@]12CO[C@@H]1C[C@@H](O)[C@@]1(C)C(=O)[C@H](O)C3=C(C)[C@@H](OC(=O)[C@H](O)[C@@H](NC(=O)c4ccccc4)c4ccccc4)C[C@@](O)([C@@H](OC(=O)c4ccccc4)C12)C3(C)C (some centres not stated) end up with in this test? True

---

test system: UACC-257; assay: NCI tumour cell line growth inhibition, 48 h
The source made the active and inactive calls. Cut-off read from the data, not from the text of the source: active = GI50 up to about 1.1 µM and inactive = higher.
Observation type: GI50

Example entries begin here.
COc1ccc(NC(=O)CC/C(CC(=O)c2ccccc2Cl)=N\Nc2nnc(C)n2N)cc1: > 100 µM (inactive)
N#CC1(CCCI)CCCC1: 22.6 µM (inactive)
CC1(C)CC(=O)c2c(nc3c(ccc4ccccc43)c2-c2ccc(NC(=O)CCCCC(=O)Nc3ccc(-c4c5c(nc6c4ccc4ccccc46)CC(C)(C)CC5=O)cc3)cc2)C1: 39.2 µM (inactive)
CCCCC1=C(C(=O)N2CCOCC2)C2(OCCO2)C1=O: 28.9 µM (inactive)
CCOP(=O)(/C=C\n1ccc(N)nc1=O)OCC: > 100 µM (inactive)
OC12CCC3(OC4CCCCO4)c4ccccc4C3C1c1ccccc12 (stereo not given): 91.2 µM (inactive)

Please find the next molecule below.
Return GI50 for the following molecule: OC(CC(O)(C(F)(F)F)C(F)(F)F)C(O)c1ccco1 (stereo not given) > 10 µM (inactive)

---

test system: A498; assay: NCI tumour cell line growth inhibition, 48 h
Calls of active or inactive are those of the source. No stated cut-off is given here; in the data, active = GI50 up to about 1.1 µM and inactive = higher.
The following molecules are listed with their measured GI50 values.

Worked examples, 4 molecules total:
CC1C(O)Oc2cc3c(cc2C1c1ccccc1O)OCO3 (stereo unspecified): 29.6 µM (inactive)
Cn1c(N/N=C/c2ccccc2)nc(-c2ccc3c(c2)OCO3)c(C#N)c1=O: 95.9 µM (inactive)
Cc1c2ccnc(C(N)=O)c2c(C)c2c1[nH]c1ccccc12: 8.18 µM (inactive)
O=C(/C=C/c1ccc(O)c(O)c1)NC(COC(=O)/C=C/c1ccc(O)c(O)c1)C(=O)O (stereo unspecified): > 100 µM (inactive)

Give GI50 for O=[N+]([O-])c1ccc(OP(=O)(O)OCC2OC(CP(=O)(O)O)C(O)C2O)cc1 (stereo unspecified) > 100 µM (inactive)

For the molecule NC1CCCCC1.O=P(O)(O)C(CSc1ccccc1)P(=O)(O)O , give its reported GI50. > 100 µM (inactive)

---

test system: SK-MEL-5; experiment: NCI tumour cell line growth inhibition, 48 h
The source made the active and inactive calls. No stated cut-off is given here; in the data, active = GI50 up to about 1.1 µM and inactive = higher.
// classify into TRUE = active, FALSE = inactive

Before answering, review these 8 worked examples.
CCOC(=O)C1=C(C)Nc2ccccc2S1: FALSE
COC(=O)C1=CON2C3CC4CC(C3)CC(C4)C12C (stereo not given): FALSE
COc1nc(NC2OC(COC(C)=O)C(OC(C)=O)C(OC(C)=O)C2OC(C)=O)c(/N=C/C=N/c2c(NC3OC(COC(C)=O)C(OC(C)=O)C(OC(C)=O)C3OC(C)=O)nc(OC)[nH]c2=O)c(=O)[nH]1 (stereo not given): FALSE
Cc1ccc(C(=O)C#Cc2cnc(O)nc2O)cc1: FALSE
CCC12C=CCN3CCC4(c5cc(C(c6ccc(OC)cc6)C6Cc7ccccc7N6)c(OC)cc5N(C)C4C(O)(C(=O)OC)C1O)C32 (stereo not given): FALSE
CO[C@@]1(c2ccccc2)O[C@H]2OCCC2[C@H]1c1ccc(Cl)cc1 (stereo not given in full): FALSE
N#Cc1ccccc1NC(=O)c1ccccc1: FALSE
CN(/N=C\c1ccnc2ccccc12)c1ccccc1: FALSE

Tell me the assay call for CC(=O)OC1C(C)OC(OC2C[C@](O)(C(C)=O)Cc3c(O)c4c(c(O)c32)C(=O)c2ccccc2C4=O)C(F)C1OC(C)=O (stereo not given in full) please. TRUE

Tell me the assay call for OC(CC(CC(O)(C(F)(F)F)C(F)(F)F)=NN=C(CC(O)(C(F)(F)F)C(F)(F)F)CC(O)(C(F)(F)F)C(F)(F)F)(C(F)(F)F)C(F)(F)F please. FALSE

---

compounds and their reported GI50
test system: U-251; experiment: NCI tumour cell line growth inhibition, 48 h
Activity calls are given as the source filed them. Rule as the data show it: active = GI50 up to about 1.1 µM and inactive = higher.

Example compounds with recorded GI50:
Nc1nc(=O)c(/N=N/c2ccccc2)c(C(=O)O)[nH]1: 56.9 µM (inactive)
CC(=O)OCc1cc2ccccc2nc1C(Br)(Br)Br: 14 µM (inactive)

Specify measured GI50 for Oc1c(OCc2nnc(CCCCCCCCc3nnc(COc4ccc5ccccc5c4O)n3Nc3ccccc3)n2Nc2ccccc2)ccc2ccccc12 . 12 µM (inactive)

State, in one line, measured GI50 of O=C(/C=C/c1ccc2c(c1)OCO2)c1ccccc(=O)c1O 15.9 µM (inactive)

Given Cc1c2ccnc(C(N)=O)c2c(C)c2c1[nH]c1ccccc12 , respond with its GI50. 8.51 µM (inactive)

---

Below is a list of entries, each paired with its recorded GI50 value.
system: K562; assay: NCI tumour cell line growth inhibition, 48 h
The source made the active and inactive calls. No stated cut-off is given here; in the data, active = GI50 up to about 1.1 µM and inactive = higher.

COc1ccc2c(c1)CCc1c-2n(CCN2CCCCC2)c2ccc(OC)cc12: 78.7 µM (inactive)
CCNC(=S)N/N=C/c1cc([N+](=O)[O-])ccc1O: 20.6 µM (inactive)
OC(CC(O)(C(F)(F)F)C(F)(F)F)C(O)c1ccco1 (centres undefined): > 10 µM (inactive)

Consider the compound CCCCc1c2c(nc3c1CCc1cc4cc5c(nc4nc1-3)-c1nc3c(c(CCCC)c1CC5)CCC/C3=C\c1ccccc1)/C(=C/c1ccccc1)CCC2 . State its measured GI50. > 100 µM (inactive)

Determine from records and report GI50 for N#CCCN(CCC#N)c1ccc(C(/N=N/c2ccccc2)=N\c2ccccc2)cc1 > 100 µM (inactive)

Query GI50 for S=C(c1c[nH]c2ccccc12)N1CCN(c2ccccc2)CC1 > 100 µM (inactive)

// fetch GI50 given entry S=C(CSc1ccccc1)Nc1cccc2ccccc12 40.2 µM (inactive)

Let me know recorded GI50 for NC(CCCCNC(=O)CNC(=O)OCc1ccccc1)C(=O)NC(CCCCNC(=O)CNC(=O)OCc1ccccc1)C(=O)NC(CCCCNC(=O)CNC(=O)OCc1ccccc1)C(=O)NC(CCCCNC(=O)CNC(=O)OCc1ccccc1)C(=O)NC(CCCCNC(=O)CNC(=O)OCc1ccccc1)C(=O)NC(CCCCNC(=O)CNC(=O)OCc1ccccc1)C(=O)O (centres undefined) , thanks. > 75 µM (inactive)

Look up and report measured GI50 for this entry: CC1=CC(=C(c2ccc(N)c(C)c2)c2ccc(N)c(C)c2)C=CC1=N 2.92 µM (inactive)

---

system: NCI-H460; assay: NCI tumour cell line growth inhibition, 48 h
Active and inactive are the calls of the source. No stated cut-off is given here; in the data, active = GI50 up to about 1.1 µM and inactive = higher.
Observation type: GI50

Before answering, review these 4 worked examples.
O=c1[nH]cc(COCC(O)CO)c(=O)[nH]1 (configuration not stated): > 100 µM (inactive)
CCCCOC(=O)NC(Nc1ccc(S(=O)(=O)Nc2ncccn2)cc1)(C(F)(F)F)C(F)(F)F: > 100 µM (inactive)
O=C(NC(COC(=O)C(Cc1ccccc1)NC(=O)c1ccccc1)Cc1ccccc1)c1ccccc1 (configuration not stated): > 50 µM (inactive)
COc1ccc(C(=O)C(c2ccc(OC)cc2)C2(O)C(=O)Nc3c(C)cc(Cl)cc32)cc1 (configuration not stated): > 100 µM (inactive)

Please tell me the measured GI50 for NC1=CN(Cc2ccccc2)C2=N/C(=C\c3ccco3)C(=O)N12 ; system: NCI-H460. > 100 µM (inactive)

Give GI50 only, for O=C(N/C(=C\c1ccc2c(c1)OCO2)c1nc2ccccc2[nH]1)c1ccccc1 , using NCI-H460 data. 34.8 µM (inactive)

Param request: GI50 | system NCI-H460 | item S=C(CSc1ccccc1)Nc1cccc2ccccc12 29.9 µM (inactive)

Would you please give the reported GI50 of COC(=O)C1=CON2C3CC4CC(C3)CC(C4)C12C (configuration not stated) with NCI-H460? > 100 µM (inactive)

Write down the reported GI50 (system: NCI-H460) of CCOC(=O)/C(=C\NCC(O)c1ccccc1)c1nc2ccccc2[nH]1 (configuration not stated) 17.2 µM (inactive)

Supply GI50 measured with NCI-H460 for N#CC1(CCCI)CCCC1 . 2.92 µM (inactive)

Find the measured GI50 of CC1=CC(=O)c2ccc3c4ccccc4n(C)c3c2C1=O with NCI-H460 as test system. 29.4 µM (inactive)

Sourced from ChEMBL document CHEMBL1201862
